measurementTarget: DNA topoisomerase 2-alpha (Homo sapiens) (UniProt P11388)
Sequence (P11388 whole entry): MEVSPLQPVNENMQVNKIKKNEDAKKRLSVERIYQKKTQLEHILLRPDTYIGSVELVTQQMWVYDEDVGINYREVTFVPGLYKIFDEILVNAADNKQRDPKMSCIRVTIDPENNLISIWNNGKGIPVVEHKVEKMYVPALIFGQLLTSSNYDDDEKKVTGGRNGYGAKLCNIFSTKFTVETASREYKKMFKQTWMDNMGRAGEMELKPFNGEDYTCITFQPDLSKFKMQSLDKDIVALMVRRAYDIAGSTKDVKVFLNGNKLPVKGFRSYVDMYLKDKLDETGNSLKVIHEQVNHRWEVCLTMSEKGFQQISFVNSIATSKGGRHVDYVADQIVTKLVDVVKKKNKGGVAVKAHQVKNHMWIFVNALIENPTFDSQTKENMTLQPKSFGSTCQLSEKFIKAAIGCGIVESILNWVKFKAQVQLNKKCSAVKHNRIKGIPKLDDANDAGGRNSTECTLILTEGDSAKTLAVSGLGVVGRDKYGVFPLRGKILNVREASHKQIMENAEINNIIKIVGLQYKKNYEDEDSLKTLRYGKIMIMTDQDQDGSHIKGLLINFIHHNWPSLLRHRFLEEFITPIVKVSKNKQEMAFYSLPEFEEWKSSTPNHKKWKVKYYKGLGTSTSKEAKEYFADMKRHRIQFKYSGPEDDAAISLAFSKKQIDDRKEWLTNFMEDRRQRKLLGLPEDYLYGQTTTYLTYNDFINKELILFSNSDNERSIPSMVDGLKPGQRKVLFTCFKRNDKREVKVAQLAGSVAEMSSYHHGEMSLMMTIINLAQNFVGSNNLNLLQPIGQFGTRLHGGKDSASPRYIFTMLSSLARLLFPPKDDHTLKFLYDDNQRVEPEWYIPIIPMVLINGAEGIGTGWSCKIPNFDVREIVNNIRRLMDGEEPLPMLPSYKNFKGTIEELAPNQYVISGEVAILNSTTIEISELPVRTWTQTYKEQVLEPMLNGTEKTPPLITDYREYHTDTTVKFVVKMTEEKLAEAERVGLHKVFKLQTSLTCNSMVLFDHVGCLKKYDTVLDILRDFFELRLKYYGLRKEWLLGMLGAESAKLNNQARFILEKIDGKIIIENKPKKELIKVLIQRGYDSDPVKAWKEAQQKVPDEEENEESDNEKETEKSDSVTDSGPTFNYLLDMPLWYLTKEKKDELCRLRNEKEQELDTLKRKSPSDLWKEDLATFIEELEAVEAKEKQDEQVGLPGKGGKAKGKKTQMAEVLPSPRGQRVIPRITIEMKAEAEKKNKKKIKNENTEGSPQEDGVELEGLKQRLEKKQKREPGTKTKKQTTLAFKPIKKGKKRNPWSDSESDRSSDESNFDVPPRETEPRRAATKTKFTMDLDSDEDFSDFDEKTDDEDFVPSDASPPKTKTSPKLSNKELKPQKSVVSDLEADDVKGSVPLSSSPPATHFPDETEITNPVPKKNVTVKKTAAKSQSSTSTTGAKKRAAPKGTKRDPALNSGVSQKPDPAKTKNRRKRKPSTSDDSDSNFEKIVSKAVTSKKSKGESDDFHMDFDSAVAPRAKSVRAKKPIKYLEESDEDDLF
procedureDetails: Inhibition of human DNA topoisomerase 2alpha assessed as relaxation of supercoiled pBR322 DNA at 20 uM after 30 mins using ethidium bromide staining by agarose gel electrophoresis
Examples of compounds with documented inhibition follow.
parameterMeasured: inhibition (%)

- Oc1ccc(-c2cc(-c3cccs3)nc3c2COc2ccccc2-3)cc1: 25.8
- Oc1ccc(-c2cc(-c3ccco3)nc3c2COc2ccccc2-3)cc1: 6.8
- Oc1cccc(-c2cc(-c3cccs3)nc3c2COc2ccccc2-3)c1: 41.2
- Oc1ccc(-c2cc(-c3ccccc3)nc3c2COc2ccccc2-3)cc1: 16.1
- Oc1ccccc1-c1cc(-c2ccco2)nc2c1COc1ccccc1-2: 17
- Oc1ccccc1-c1cc(-c2ccsc2)nc2c1COc1ccccc1-2: 29.7
- Oc1cccc(-c2cc(-c3ccco3)nc3c2COc2ccccc2-3)c1: 0
- Oc1cccc(-c2cc(-c3ccccc3O)c3c(n2)-c2ccccc2OC3)c1: 4.8
- Oc1cccc(-c2cc(-c3ccsc3)nc3c2COc2ccccc2-3)c1: 31.7
- Oc1cccc(-c2cc(-c3ccccc3O)nc3c2COc2ccccc2-3)c1: 33.7
- Oc1ccccc1-c1cc(-c2ccccc2)nc2c1COc1ccccc1-2: 10

###

Examples of compounds with documented inhibition follow.
measurementTarget: UniProtKB P11388
procedureDetails: Inhibition of human DNA topoisomerase 2alpha assessed as relaxation of supercoiled pBR322 DNA at 20 uM after 30 mins using ethidium bromide staining by agarose gel electrophoresis
parameterMeasured: inhibition (%)

- Oc1ccccc1-c1cc(-c2ccccc2O)c2c(n1)-c1ccccc1OC2: 47.9
- Oc1ccc(-c2cc(-c3ccccc3O)c3c(n2)-c2ccccc2OC3)cc1: 8
- Oc1cccc(-c2cc(-c3cccc(O)c3)c3c(n2)-c2ccccc2OC3)c1: 1.9
- Oc1ccc(-c2cc(-c3cccc(O)c3)nc3c2COc2ccccc2-3)cc1: 7.6
- Oc1cccc(-c2cc(-c3ccccc3)nc3c2COc2ccccc2-3)c1: 10.9
- Oc1ccccc1-c1cc(-c2cccs2)nc2c1COc1ccccc1-2: 4.8
- Oc1ccc(-c2cc(-c3ccsc3)nc3c2COc2ccccc2-3)cc1: 18.1
- Oc1ccc(-c2cc(-c3ccccc3O)nc3c2COc2ccccc2-3)cc1: 63.2
- Oc1ccc(-c2cc(-c3cccc(O)c3)c3c(n2)-c2ccccc2OC3)cc1: 1.8
- Oc1ccc(-c2cc(-c3ccc(O)cc3)c3c(n2)-c2ccccc2OC3)cc1: 10.3

###

procedureDetails: Cytotoxicity against human MCF10A cells after 2 days by CCK8 assay
Format: cell-based
appliedConditions: MCF-10A, 48 h
Please note: IC50 exactly at 8 µM is Not fulfilled. Only values below 8 µM get Fulfilled.

• Oc1ccc(-c2cc(-c3cccc(O)c3)c3c(n2)-c2ccccc2OC3)cc1 = Fulfilled
• Oc1cccc(-c2cc(-c3ccco3)nc3c2COc2ccccc2-3)c1 = Not fulfilled
• Oc1ccc(-c2cc(-c3ccccc3O)nc3c2COc2ccccc2-3)cc1 = Not fulfilled
• Oc1cccc(-c2cc(-c3ccccc3O)c3c(n2)-c2ccccc2OC3)c1 = Fulfilled

###

measurementTarget: DNA topoisomerase 1 (Homo sapiens)
Sequence (whole entry): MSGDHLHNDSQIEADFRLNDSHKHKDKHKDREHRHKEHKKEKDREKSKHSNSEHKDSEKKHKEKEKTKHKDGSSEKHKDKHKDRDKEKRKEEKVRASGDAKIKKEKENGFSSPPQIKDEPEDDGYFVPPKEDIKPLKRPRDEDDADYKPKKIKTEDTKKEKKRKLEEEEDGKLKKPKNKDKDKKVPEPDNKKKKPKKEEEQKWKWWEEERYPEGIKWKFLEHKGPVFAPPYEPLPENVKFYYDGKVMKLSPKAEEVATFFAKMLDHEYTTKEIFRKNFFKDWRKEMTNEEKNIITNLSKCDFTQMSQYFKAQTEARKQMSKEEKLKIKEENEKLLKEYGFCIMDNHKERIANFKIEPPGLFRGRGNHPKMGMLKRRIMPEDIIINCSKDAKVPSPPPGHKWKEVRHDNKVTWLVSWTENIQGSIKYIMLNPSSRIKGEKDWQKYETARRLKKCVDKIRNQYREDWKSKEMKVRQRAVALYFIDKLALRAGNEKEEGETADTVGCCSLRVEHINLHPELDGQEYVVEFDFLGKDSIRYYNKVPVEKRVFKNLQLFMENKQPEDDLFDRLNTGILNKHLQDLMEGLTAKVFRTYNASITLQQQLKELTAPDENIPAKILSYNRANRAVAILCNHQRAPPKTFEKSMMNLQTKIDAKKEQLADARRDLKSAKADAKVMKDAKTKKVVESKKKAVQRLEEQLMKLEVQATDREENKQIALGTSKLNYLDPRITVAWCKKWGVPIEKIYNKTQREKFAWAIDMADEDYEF
procedureDetails: Inhibition of human recombinant DNA topoisomerase 1 assessed as relaxation of supercoiled pBR322 DNA at 100 uM after 30 mins using ethidium bromide staining by agarose gel electrophoresis
Examples of compounds with documented inhibition follow.
parameterMeasured: inhibition (%)

- Oc1cccc(-c2cc(-c3ccccc3)nc3c2COc2ccccc2-3)c1: 1.5
- Oc1ccc(-c2cc(-c3cccs3)nc3c2COc2ccccc2-3)cc1: 1
- Oc1ccc(-c2cc(-c3ccccc3O)nc3c2COc2ccccc2-3)cc1: 3.8
- Oc1ccccc1-c1cc(-c2ccccc2O)c2c(n1)-c1ccccc1OC2: 2.4
- Oc1ccccc1-c1cc(-c2ccccc2)nc2c1COc1ccccc1-2: 3.6
- Oc1ccc(-c2cc(-c3ccsc3)nc3c2COc2ccccc2-3)cc1: 0
- Oc1ccc(-c2cc(-c3ccccc3O)c3c(n2)-c2ccccc2OC3)cc1: 7.6
- Oc1ccccc1-c1cc(-c2cccs2)nc2c1COc1ccccc1-2: 3.5
- Oc1ccccc1-c1cc(-c2ccco2)nc2c1COc1ccccc1-2: 3.9
- Oc1cccc(-c2cc(-c3cccs3)nc3c2COc2ccccc2-3)c1: 6.6
- c1ccc(-c2cc(-c3ccccc3)c3c(n2)-c2ccccc2OC3)cc1: 0

###

procedureDetails: Cytotoxicity against human MCF10A cells after 2 days by CCK8 assay
Format: cell-based
appliedConditions: MCF-10A, 48 h
pIC50: −log10 of the molar value.
Examples of molecules with documented pIC50 follow.
parameterMeasured: pIC50

- Oc1ccccc1-c1cc(-c2ccccc2)nc2c1COc1ccccc1-2: 5.09
- CC[C@@]1(O)C(=O)OCc2c1cc1n(c2=O)Cc2cc3ccccc3nc2-1 [CAMPTOTHECIN]: 6.01
- Oc1ccc(-c2cc(-c3ccc(O)cc3)c3c(n2)-c2ccccc2OC3)cc1: 5.72
- Oc1cccc(-c2cc(-c3ccsc3)nc3c2COc2ccccc2-3)c1: 5.14
- Oc1cccc(-c2cc(-c3cccc(O)c3)c3c(n2)-c2ccccc2OC3)c1: 5.24
- Oc1ccccc1-c1cc(-c2cccs2)nc2c1COc1ccccc1-2: 5.25
- Oc1ccc(-c2cc(-c3ccccc3)nc3c2COc2ccccc2-3)cc1: 5.20
- Oc1ccc(-c2cc(-c3ccco3)nc3c2COc2ccccc2-3)cc1: 5.16
- Oc1ccccc1-c1cc(-c2ccsc2)nc2c1COc1ccccc1-2: 5.14
- Oc1cccc(-c2cc(-c3cccs3)nc3c2COc2ccccc2-3)c1: 5.19
- Oc1ccccc1-c1cc(-c2ccccc2O)c2c(n1)-c1ccccc1OC2: 5.06
- Oc1ccc(-c2cc(-c3ccccc3O)c3c(n2)-c2ccccc2OC3)cc1: 5.56

Data provenance: ChEMBL document CHEMBL3611987
